- System: HeLa Kyoto;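 also: synchronized HeLa Kyoto cells (double thymidine block for G1/S, nocodazole release for mitosis), protein amounts in NP-40 versus SDS lysates quantified by mass spectrometry, three biological replicates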
- MEASUREMENT PROTOCOL: solubility change mitosis vs G1/S (difference of NP-40 vs SDS log2 ratios) (log2 ratio difference); higher = more soluble in mitosis
# if value of solubility change mitosis (log2) reaches -0.2, tag Fulfilled; if it stays below, tag Not fulfilled

[
  {
    "SEQUENCE TEXT": "MPRVVPDQRSKFENEEFFRKLSRECEIKYTGFRDRPHEERQARFQNACRDGRSEIAFVATGTNLSLQFFPASWQGEQRQTPSREYVDLEREAGKVYLKAPMILNGVCVIWKGWIDLQRLDGMGCLEFDEERAQQEDALAQQAFEEARRRTREFEDRDRSHREEMEVRVSQLLAVTGKKTTRP [CBFB]",
    "LABEL": "Fulfilled"
  },
  {
    "SEQUENCE TEXT": "MSYCRQEGKDRIIFVTKEDHETPSSAELVADDPNDPYEEHGLILPNGNINWNCPCLGGMASGPCGEQFKSAFSCFHYSTEEIKGSDCVDQFRAMQECMQKYPDLYPQEDEDEEEEREKKPAEQAEETAPIEATATKEEEGSS [CHCHD4]",
    "LABEL": "Not fulfilled"
  },
  {
    "SEQUENCE TEXT": "MDGKQGGMDGSKPAGPRDFPGIRLLSNPLMGDAVSDWSPMHEAAIHGHQLSLRNLISQGWAVNIITADHVSPLHEACLGGHLSCVKILLKHGAQVNGVTADWHTPLFNACVSGSWDCVNLLLQHGASVQPESDLASPIHEAARRGHVECVNSLIAYGGNIDHKISHLGTPLYLACENQQRACVKKLLESGADVNQGKGQDSPLHAVARTASEELACLLMDFGADTQAKNAEGKRPVELVPPESPLAQLFLEREGPPSLMQLCRLRIRKCFGIQQHHKITKLVLPEDLKQFLLHL [ASB9]",
    "LABEL": "Fulfilled"
  },
  {
    "SEQUENCE TEXT": "MPKKKTGARKKAENRREREKQLRASRSTIDLAKHPCNASMECDKCQRRQKNRAFCYFCNSVQKLPICAQCGKTKCMMKSSDCVIKHAGVYSTGLAMVGAICDFCEAWVCHGRKCLSTHACACPLTDAECVECERGVWDHGGRIFSCSFCHNFLCEDDQFEHQASCQVLEAETFKCVSCNRLGQHSCLRCKACFCDDHTRSKVFKQEKGKQPPCPKCGHETQETKDLSMSTRSLKFGRQTGGEEGDGASGYDAYWKNLSSDKYGDTSYHDEEEDEYEAEDDEEEEDEGRKDSDTESSDLFTNLNLGRTYASGYAHYEEQEN [ZNF330]",
    "LABEL": "Fulfilled"
  },
  {
    "SEQUENCE TEXT": "MEADASVDMFSKVLEHQLLQTTKLVEEHLDSEIQKLDQMDEDELERLKEKRLQALRKAQQQKQEWLSKGHGEYREIPSERDFFQEVKESENVVCHFYRDSTFRCKILDRHLAILSKKHLETKFLKLNVEKAPFLCERLHIKVIPTLALLKDGKTQDYVVGFTDLGNTDDFTTETLEWRLGSSDILNYSGNLMEPPFQNQKKFGTNFTKLEKKTIRGKKYDSDSDDD [TXNDC9]",
    "LABEL": "Fulfilled"
  }
]

Can MATSLDFKTYVDQACRAAEEFVNIYYETMDKRRRALTRLYLDKATLIWNGNAVSGLDALNNFFDTLPSSEFQVNMLDCQPVHEQATQSQTTVLVVTSGTVKFDGNKQHFFNQNFLLTAQSTPNNTVWKIASDCFRFQDWSSS [NXT2] be said to have solubility change mitosis (log2) at or above -0.2?
Fulfilled
